test: Tmax in nude mouse at 30 mg/kg, ip administered as single dose; assay type: ADME, organism-based; settings: in vivo
reportedMetric: Tmax (min)
Numeric only. Scale: min

Query: Entry Cl.NC1CCc2c(Br)ccc(-c3ccccc3)c2CC1=O (stereo unspecified) needs its Tmax filled in; supply it.
Result: 30

* * *

assay: Cmax in nude mouse at 30 mg/kg, ip administered as single dose; type: ADME, organism-based; parameters: dose 30 mg/kg, route intraperitoneal; settings: in vivo
reportedMetric: Cmax (ng/mL)
Lab book: enter the figure in ng/mL, no units written.

Query: Return the recorded Cmax value; entry: Cl.NC1CCc2c(Br)ccc(-c3ccccc3)c2CC1=O (stereo unspecified)
Result: 115
